# testedOn: G-protein coupled receptor 151 (Homo sapiens)
# assaySummary: activators of human GPR151, primary screen, cell-based, PathHunter beta-arrestin, luminescence (AID 1508602);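 note: 0% = median of compound wells and 100% = cells with positive control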
# conditionInfo: PathHunter beta-arrestin GPR151 cells, at 11.2 µM, active compounds read high
Among all 650,000 compounds or so, about 6,800 (1%) were called active. For the sample, actives were picked, then their nearest neighbours and some compounds at random.
Record form. Attribute: activation. Fill in for each entry.
Numbers only, in %.

# activation of Cc1ccc(N2C(=O)CC(N3CCN(C(c4ccccc4)c4ccccc4)CC3)C2=O)c(Br)c1 (centres undefined) = -0.0796

For `O=C1CN(CC(=O)Nc2c(Cl)cc(Cl)cc2Cl)CCN1` the compound record lists activation as 0.357

Reported activation ( `O=C1c2cccc([N+](=O)[O-])c2C(=O)N1c1ccc2ccccc2c1` ) = 0.404

List reported activation for each of these compounds:
1. C/C(=N\NC(=O)CCC(=O)N/N=C(\C)c1ccc(Cl)cc1)c1ccc(Cl)cc1
2. CC(C)CCn1nnnc1CN1CCN(c2ccccc2F)CC1
3. CCOc1ccccc1CNn1c(-c2ccc(OC)cc2)nc2ccccc2c1=O
4. COc1cc(Cl)c(C)cc1NC(=O)Cn1cnc2sc(C)c(C)c2c1=O
5. CCc1nc(N2CCC(C(=O)O)CC2)c2oc3ccccc3c2n1
6. CN1C(=O)c2ccc(N3C(=O)c4cccc([N+](=O)[O-])c4C3=O)cc2C1=O
7. COCCNC(=O)CCCNC(=O)Cn1cnc2sc(C)c(C)c2c1=O
8. CCOc1ccc(NC(=O)CSC2=C(C#N)C(c3ccc(Cl)cc3Cl)CC(=O)N2)cc1 (centres undefined)

Output:
0.378
-0.0283
-1.68
0.0902
-2.33
5.16
1.23
-1.43

* * *

# testedOn: G-protein coupled receptor 151 (Homo sapiens) (UniProt Q8TDV0)
# Sequence (Q8TDV0 whole entry, looked up): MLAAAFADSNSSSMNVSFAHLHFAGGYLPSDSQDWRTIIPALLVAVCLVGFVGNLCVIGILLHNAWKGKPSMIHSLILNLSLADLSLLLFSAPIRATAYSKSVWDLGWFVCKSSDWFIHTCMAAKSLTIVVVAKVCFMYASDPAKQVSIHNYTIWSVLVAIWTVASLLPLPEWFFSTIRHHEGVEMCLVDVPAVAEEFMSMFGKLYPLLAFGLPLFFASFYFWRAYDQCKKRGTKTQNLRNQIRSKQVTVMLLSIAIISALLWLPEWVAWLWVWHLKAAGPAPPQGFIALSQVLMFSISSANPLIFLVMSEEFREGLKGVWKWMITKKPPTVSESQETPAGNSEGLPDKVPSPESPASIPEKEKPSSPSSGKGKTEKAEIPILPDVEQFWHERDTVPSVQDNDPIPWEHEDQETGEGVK
# assaySummary: activators of human GPR151, primary screen, cell-based, PathHunter beta-arrestin, luminescence (AID 1508602);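 note: 0% = median of compound wells and 100% = cells with positive control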
# conditionInfo: PathHunter beta-arrestin GPR151 cells, at 11.2 µM, active compounds read high
The campaign covered roughly 650,000 compounds. About 6,800 (1%) were called active. Only a selection was taken, and actives are over-represented in it overall.
Please go through the items and note down their activation.

Answered cases to consult:
activation of `CCc1ccc(NS(=O)(=O)c2ccc(Cl)cc2)cc1` , assay on G-protein coupled receptor 151 (Homo sapiens) (UniProt Q8TDV0), is 5.43% (active)

The value of activation recorded for `Cc1ccc2c(c1)N(C(=O)Cn1cc(-c3ccccc3)c(N(C)C)n1)CCO2` when tested on G-protein coupled receptor 151 (Homo sapiens) (UniProt Q8TDV0) reads -0.0851% (inactive)

Item: C=CCNC(=O)C(=O)NCC1OCCCN1S(=O)(=O)c1ccccc1 (configuration not stated) | System: G-protein coupled receptor 151 (Homo sapiens) (UniProt Q8TDV0) | activation: 5.93% (active)

Noted activation for CC(C)c1ccc(N2C(=O)C3C(C2=O)C2(c4ccccc4)C(=O)C3(c3ccccc3)C(c3ccccc3)=C2c2ccccc2)cc1 (configuration not stated) , tested on G-protein coupled receptor 151 (Homo sapiens) (UniProt Q8TDV0): 2.7% (inactive)

Considering `C[C@H]1Cc2c(COc3ccccc3)nc3c(c2CO1)CN(C(=O)Nc1cccc(C#N)c1)CC3` , its activation with G-protein coupled receptor 151 (Homo sapiens) (UniProt Q8TDV0) was recorded as -0.449% (inactive)

Could I get activation for every one of these entries?
1. COC1(C(F)(F)F)NC(=O)N(c2ccccc2)C1=O (configuration not stated)
2. CC(C)(C)c1ccc(S(=O)(=O)ON2C(=O)c3ccccc3C2=O)cc1
3. COc1ccc(/C=C(\C#N)C(=O)Nc2ccc(F)cc2)c(OC)c1
4. O=C1CCC(=O)NCC(=O)NCCOCCNC(=O)CN1
5. CCCSc1[nH]c(=O)c(C(=O)O)cc1C#N
6. CNC(=O)c1c(NC(=O)c2ccc(OC)cc2)sc2c1CCCCC2

Output:
["-1.06% (inactive)", "3.8% (inactive)", "6.94% (active)", "-0.231% (inactive)", "-0.367% (inactive)", "-1.51% (inactive)"]

Observed activation on G-protein coupled receptor 151 (Homo sapiens) (UniProt Q8TDV0), entry O=C1NC2(CCN(CC3CCC=CO3)CC2)Oc2ccccc21 (configuration not stated) , equals -0.166% (inactive)

* * *

# testedOn: G-protein coupled receptor 151 (Homo sapiens)
# assaySummary: activators of human GPR151, primary screen, cell-based, PathHunter beta-arrestin, luminescence (AID 1508602);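 note: 0% = median of compound wells and 100% = cells with positive control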
# conditionInfo: PathHunter beta-arrestin GPR151 cells, at 11.2 µM, active compounds read high
Out of some 650,000 compounds screened, about 6,800 (1%) were called active. For the sample, actives were picked, then their nearest neighbours and some compounds at random.
measuredMetric: activation (%)
Give bare numbers, in %.

Sample answers from the record:
// field: activation; key: CCOC(=O)C1=C(C)N=c2s/c(=C\c3cccc(OC)c3OCC)c(=O)n2C1c1ccccc1OC(C)C (stereo not drawn) ; value = 2.86

Record `O=C(CCN1CCN(C/C=C/c2ccccc2)CC1)Nc1ccc(Br)cc1` . Reported activation: 1.05

`CC(=O)c1c(C)[nH]c(C(=O)CN2CCN(C(=O)c3ccccc3)CC2)c1C` has a reported activation of 0.331

Data point: `CCOc1nn(CC)cc1-c1nnc(SCC(=O)NC)n1C` ; activation = 1.61

// for each compound in input: emit activation
1. Cc1ccc2nc3[nH]c4ccccc4c3nc2c1
2. CCC(Cc1ccccc1)NC(=O)c1ccco1 (stereo not drawn)
3. CC(=O)OCc1cn(-c2nonc2N)nn1
4. Cc1cccc(NC(=O)COc2ccc([N+](=O)[O-])cc2)c1
5. CC1CCC(NS(=O)(=O)c2ccc3c(c2)oc(=O)n3C)CC1 (stereo not drawn)

Output:
1. -4.57
2. 0.495
3. 2.37
4. 0.0864
5. 0.208

# per-item lookup of activation; items listed below
1. O=C(Nc1ccc2oc(-c3ccc(F)cc3)nc2c1)c1ccc([N+](=O)[O-])cc1
2. COc1ccc(S(=O)(=O)N(C)CC(=O)Nc2cccc(C(F)(F)F)c2)cc1OC
3. O=C(NCc1ccc(Cl)cc1)C(=O)NC1CCCCCC1

Output:
0.435
1.26
1.92

Batch request: activation for each of the following compounds.
1. O=C(CC1C(=O)NCCN1Cc1ccc2ccccc2c1)NCCCn1cccn1 (stereo not drawn)
2. CC(=O)c1cccc(-c2nc(NCCOc3ccccc3)c3ncn(-c4ccccc4)c3n2)c1
3. COC(=O)c1cc(NC(=O)COc2ccc([N+](=O)[O-])cc2)cc(C(=O)OC)c1
4. COCCn1cc(C(=O)N2CCCCCC2)c2c3ccccc3n(C)c2c1=O
5. COC(=O)[C@@H]1CC(O)CN1C(=O)C12CC3CC(CC(C3)C1)C2 (stereo partly drawn)
6. CCN(CC)CCOC(=O)c1ccc(OC)cc1OCCN(CC)CC
7. O=C(COc1ccc([N+](=O)[O-])cc1)Nc1cccc(Br)c1

Output:
[5.94, 0.401, 5.49, 0.412, 6.17, 1.9, 0.574]

* * *

# testedOn: G-protein coupled receptor 151 (Homo sapiens)
# assaySummary: activators of human GPR151, primary screen, cell-based, PathHunter beta-arrestin, luminescence (AID 1508602);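 note: 0% = median of compound wells and 100% = cells with positive control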
# conditionInfo: PathHunter beta-arrestin GPR151 cells, at 11.2 µM, active compounds read high
The whole screen tested about 650,000 compounds, of which about 6,800 (1%) were called active. What follows is part of a selection rich in actives, with near analogues and random picks from the rest.
Record form. Attribute: activation. Fill in for each entry.
One number for each entry, in %.

response.value for `CCN1CCN(c2cc(Nc3cccc(OC)c3)c3c4c(onc24)-c2ccccc2C3=O)CC1` (field: activation) = -1.99

// COC(=O)C1=CN(CC2CCCO2)C=C(C(=O)OC)C1c1ccc(OC)c(O)c1 (stereo unspecified) : activation value = 1.3

Form: compound = `COc1ccc(CCNC(=O)c2ccccc2C(=O)O)cc1OC` ; activation = -1.14

For record CC1CCCN(CC(O)COc2ccc3c(c2)OCO3)C1 (stereo unspecified) the listed activation is -0.477

What the record says about `NC(=O)Cn1c(=O)n(CCCCC(=O)NCCc2ccccc2)c(=O)c2ccccc21` : activation is -0.245

The compound `c1cnc(N2CCN(Cc3cccc4ccccc34)CC2)nc1` showed activation equal to 0.32

For the 5 compounds below, give their activation values.
1. Cc1cncc2cccc(N3CCN(C(=O)C(N)c4ccc(Br)cc4)CC3)c12 (stereo unspecified)
2. COC(=O)CN1C=C(C(=O)OC)C(c2ccc(OC)c(O)c2)C(C(=O)OC)=C1
3. CCc1ccc(CN2CCCC(CO)(Cc3cccc(OC)c3)C2)o1 (stereo unspecified)
4. Cc1cccc(C)c1-n1c(=S)sc2c(=O)n(-c3cccc(Cl)c3)c(SCc3cccc([N+](=O)[O-])c3)nc21
5. c1ccc(NCc2cccc3ccccc23)nc1

Output:
1.97
6.57
0.911
-0.958
5.45

Each recorded value in this set is attributed to PubChem BioAssay AID1508602.
